Quick record: pIC50, Sodium-dependent serotonin transporter (Rattus norvegicus).
pIC50 here is simply -log10 of the concentration when that concentration is written in mol/L.

// known answers, use as guide
[ask] Indicate the recorded pIC50 value for this molecule: CN(C)CC(c1ccc([N+](=O)[O-])cc1)C1(O)CCCCC1 (stereo not drawn)
[reply] 6.60

[ask] For the molecule CN(C)CC(c1ccccc1Br)C1(O)CCCCC1 (stereo not drawn) , give its measured pIC50 value.
[reply] 6.59

[ask] Provide measured pIC50 value, entry: CN(C)CC(c1ccc(C(F)(F)F)cc1)C1(O)CCCCC1 (stereo not drawn)
[reply] 7.06

[ask] Quote pIC50 reported for CN(C)CC(c1ccc(Br)cc1)C1(O)CCCCC1 (stereo not drawn) please.
[reply] 7.21

[ask] Dear colleague, please send me the reported pIC50 for CN(C)CC(c1ccc(Br)cc1)C1(O)CCC1 (stereo not drawn) when you can.
[reply] 6.36

[ask] Please list pIC50 recorded for the molecule CNCC(c1ccc(OC)cc1)C1(O)CCCCC1 (stereo not drawn)
[reply] 6.52

Next molecule, pIC50 to be filled in.
[ask] Return pIC50 for the following molecule: Cc1ccc(C(CN(C)C)C2(O)CCCCC2)cc1 (stereo not drawn)
[reply] 6.69
